Field: EC50. Provide a value for each of the binders that follow.
- system.tested: T1, human IGSF11 (VSIG3) expressed on cells (human, UniProt Q5DX21 23-431)
- T1 sequence: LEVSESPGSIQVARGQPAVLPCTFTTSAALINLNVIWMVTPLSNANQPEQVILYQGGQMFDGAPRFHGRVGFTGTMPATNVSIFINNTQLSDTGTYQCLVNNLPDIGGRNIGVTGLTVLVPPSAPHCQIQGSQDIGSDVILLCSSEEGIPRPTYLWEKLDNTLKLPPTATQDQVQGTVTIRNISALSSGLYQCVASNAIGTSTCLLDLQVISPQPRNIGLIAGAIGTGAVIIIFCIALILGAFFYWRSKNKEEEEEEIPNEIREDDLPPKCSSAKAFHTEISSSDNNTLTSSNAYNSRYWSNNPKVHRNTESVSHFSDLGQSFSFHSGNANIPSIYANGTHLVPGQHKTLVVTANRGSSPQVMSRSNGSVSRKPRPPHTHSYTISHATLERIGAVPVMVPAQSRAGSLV
- protocol: IgG FACS Colo741

Consider the worked cases shown below.
>  <binder>
D-116 (IgG format) (antibody, V domains shown) VH: EVQLLESGGGLVQPGGSLRLSCAASGFTFKHSAISWVRQAPGKGLEWVSAISYGGGSQYYADSVKGRFTISRDNSKNTLYLQMNSLRAEDTAVYYCARDSRDAYGVAFDLWGQGTMVTVSS VL: ASVLTQPPSVSAAPGQKVTISCSGSSSNIGNNYVSWYQQLPGTAPKLLIYDNNKRPSGIPDRFSGSKSGTSATLGITGLQAEDEADYYCQSYGHRSFVFGGGTKLTVL

>  <EC50>
< 0.5 nM

$$$$
>  <binder>
D-115 (IgG format) (antibody, V domains shown) VH: EVQLLESGGGLVQPGGSLRLSCAASGFTFQFSALSWVRQAPGKGLEWVSAISYGGGSKYYADSVKGRFTISRDNSKNTLYLQMNSLRAEDTAVYYCARDSRDAYGVAFDLWGQGTMVTVSS VL: ASVLTQPPSVSAAPGQKVTISCSGSSSNIGNNYVSWYQQLPGTAPKLLIYDNNKRPSGIPDRFSGSKSGTSATLGITGLQAEDEADYYCQSYESRLFVFGGGTKLTVL

>  <EC50>
< 0.1 nM

$$$$
>  <binder>
D-114 (IgG format) (antibody, V domains shown) VH: EVQLLESGGGLVQPGGSLRLSCAASGFTFQFSALSWVRQAPGKGLEWVSAISYGGGSKYYADSVKGRFTISRDNSKNTLYLQMNSLRAEDTAVYYCARDSRDAYGVAFDLWGQGTMVTVSS VL: ASVLTQPPSVSAAPGQKVTISCSGSSSNIGNNYVSWYQQLPGTAPKLLIYDNNKRPSGIPDRFSGSKSGTSATLGITGLQAEDEADYYCLSYKLSPGAYVFGGGTKLTVL

>  <EC50>
< 0.5 nM

$$$$
>  <binder>
D-222 (IgG format) (antibody, V domains shown) VH: EVQLVESGGGLVKPGGSLRLSCAASGFTFSHAWISWVRQAPGKGLEWVGQIKGGPGSGGTSYAEPVKGRFTISRDDSKNTLYLQMNSLKTEDTAVYYCARLGIYSGFDYWGQGTLVTVSS VL: SYELTQPPSVSVSPGQTASITCSGDKLGDKYASWYQQKPGQSPVLVIYQDSKRPSGIPERFSGSNSGNTATLTISGTQAEDEADYYCHTYSHRPEIVVFGGGTKLTVL

>  <EC50>
< 0.5 nM

$$$$

# next binder below
D-223 (IgG format) (antibody, V domains shown) VH: EVQLVESGGGLVKPGGSLRLSCAASGFTFSHAWISWVRQAPGKGLEWVGQIKGGPGSGGTSYAEPVKGRFTISRDDSKNTLYLQMNSLKTEDTAVYYCARLGIYSGFDYWGQGTLVTVSS VL: SYELTQPPSVSVSPGQTASITCSGDKLGDKYASWYQQKPGQSPVLVIYQDSKRPSGIPERFSGSNSGNTATLTISGTQAEDEADYYCHSYLHLPPTVVFGGGTKLTVL yielded EC50 of < 0.5 nM
